assay: Cytotoxicity against human MCF10A cells assessed as growth inhibition at 10 ug/ml after 72 hrs by MTT assay; assay type: cell-based, MCF-10A; conditions: read-out: GI
Listed molecules paired with reported inhibition at 72 h, 10 ug/ml
metric: inhibition at 72 h, 10 ug/ml (%)

molecule | value
CC(=O)Oc1ccc(COP(=O)(OCc2ccc(OC(C)=O)cc2)OC2C3OCOC2C(OP(=O)(OCc2ccc(OC(C)=O)cc2)OCc2ccc(OC(C)=O)cc2)C(OP(=O)(OCc2ccc(OC(C)=O)cc2)OCc2ccc(OC(C)=O)cc2)C3OCc2ccccc2)cc1 (centres undefined) | 2.5
CC(=O)Oc1ccc(COP(=O)(OCc2ccc(OC(C)=O)cc2)OC2C3OCOC2C(OCc2ccccc2)C(OP(=O)(OCc2ccc(OC(C)=O)cc2)OCc2ccc(OC(C)=O)cc2)C3OCc2ccccc2)cc1 (centres undefined) | 48
CC(=O)Oc1ccc(COP(=O)(OCc2ccc(OC(C)=O)cc2)OC2C3OC4OC2C(OP(=O)(OCc2ccc(OC(C)=O)cc2)OCc2ccc(OC(C)=O)cc2)C(O4)C3OP(=O)(OCc2ccc(OC(C)=O)cc2)OCc2ccc(OC(C)=O)cc2)cc1 (centres undefined) | -2.9
CC(=O)Oc1ccc(COP(=O)(OCc2ccc(OC(C)=O)cc2)O[C@@H]2[C@@H](OP(=O)(OCc3ccc(OC(C)=O)cc3)OCc3ccc(OC(C)=O)cc3)[C@H](OCc3ccccc3)[C@@H](OCc3ccccc3)[C@H](OCc3ccccc3)[C@@H]2OP(=O)(OCc2ccc(OC(C)=O)cc2)OCc2ccc(OC(C)=O)cc2)cc1 | 55.3

---

test system: A549; test: Cytotoxicity against human A549 cells assessed as growth inhibition at 10 ug/ml after 72 hrs by MTT assay; format: functional; details: A549, 72 h, read-out: GI
If the reported inhibition of growth at 10 µg/mL equals or exceeds 10%, assign T. If not, assign F.

molecule | class_label
CC(=O)Oc1ccc(COP(=O)(OCc2ccc(OC(C)=O)cc2)O[C@@H]2[C@@H](OCc3ccccc3)[C@H](OCc3ccccc3)[C@@H](OP(=O)(OCc3ccc(OC(C)=O)cc3)OCc3ccc(OC(C)=O)cc3)[C@@H](OP(=O)(OCc3ccc(OC(C)=O)cc3)OCc3ccc(OC(C)=O)cc3)[C@H]2OCc2ccccc2)cc1 | F
CC(=O)Oc1ccc(COP(=O)(OCc2ccc(OC(C)=O)cc2)OC2C3OCOC2C(OP(=O)(OCc2ccc(OC(C)=O)cc2)OCc2ccc(OC(C)=O)cc2)C(OP(=O)(OCc2ccc(OC(C)=O)cc2)OCc2ccc(OC(C)=O)cc2)C3OCc2ccccc2)cc1 (stereo not drawn) | T
CC(=O)Oc1ccc(COP(=O)(OCc2ccc(OC(C)=O)cc2)O[C@H]2[C@H](OCc3ccccc3)[C@@H](OP(=O)(OCc3ccc(OC(C)=O)cc3)OCc3ccc(OC(C)=O)cc3)[C@H](OCc3ccccc3)[C@@H](OP(=O)(OCc3ccc(OC(C)=O)cc3)OCc3ccc(OC(C)=O)cc3)[C@H]2OCc2ccccc2)cc1 | T
CC(=O)Oc1ccc(COP(=O)(OCc2ccc(OC(C)=O)cc2)OC2C(OCc3ccccc3)C3OC(C)OC(C3OCc3ccccc3)C2OCc2ccccc2)cc1 (stereo not drawn) | T
CC(=O)Oc1ccc(COP(=O)(OCc2ccc(OC(C)=O)cc2)O[C@H]2[C@H](OCc3ccccc3)[C@@H](OCc3ccccc3)[C@@H](OP(=O)(OCc3ccc(OC(C)=O)cc3)OCc3ccc(OC(C)=O)cc3)[C@@H](OP(=O)(OCc3ccc(OC(C)=O)cc3)OCc3ccc(OC(C)=O)cc3)[C@@H]2OCc2ccccc2)cc1 | F
CC(=O)Oc1ccc(COP(=O)(OCc2ccc(OC(C)=O)cc2)O[C@H]2[C@H](OP(=O)(OCc3ccc(OC(C)=O)cc3)OCc3ccc(OC(C)=O)cc3)[C@@H](OCc3ccccc3)[C@H](OCc3ccccc3)[C@H](OCc3ccccc3)[C@@H]2OP(=O)(OCc2ccc(OC(C)=O)cc2)OCc2ccc(OC(C)=O)cc2)cc1 | F
CC(=O)Oc1ccc(COP(=O)(OCc2ccc(OC(C)=O)cc2)O[C@@H]2[C@@H](OCc3ccccc3)[C@H](OP(=O)(OCc3ccc(OC(C)=O)cc3)OCc3ccc(OC(C)=O)cc3)[C@H](OCc3ccccc3)[C@H](OCc3ccccc3)[C@H]2OCc2ccccc2)cc1 | T
